# CONDITION SUMMARY: in isopropanol, 298.4 K
ENDPOINT NAME: solubility (mole fraction)
The answer should be written as a number, with no unit following it.

Input C(=C\c1ccccc1)/CN1CCN(C(c2ccccc2)c2ccccc2)CC1 , output reported solubility (mole fraction).
0.000994

====

# CONDITION SUMMARY: in isopropanol, 313.2 K
ENDPOINT NAME: solubility (mole fraction)
Lab note: record the figure alone, no unit after it.

Provide solubility (mole fraction) value for the following compound: C(=C\c1ccccc1)/CN1CCN(C(c2ccccc2)c2ccccc2)CC1
0.00208

====

# CONDITION SUMMARY: in acetonitrile, 303.3 K
ENDPOINT NAME: solubility (mole fraction)

Retrieve solubility (mole fraction) measured for C(=C\c1ccccc1)/CN1CCN(C(c2ccccc2)c2ccccc2)CC1 and print it.
0.00158

====

# CONDITION SUMMARY: in n-butanol, 303.3 K
ENDPOINT NAME: solubility (mole fraction)
Answer field: number only, no words.

Given the molecule C(=C\c1ccccc1)/CN1CCN(C(c2ccccc2)c2ccccc2)CC1 , write its reported solubility (mole fraction).
0.00499

====

# CONDITION SUMMARY: in acetonitrile, 308.3 K
ENDPOINT NAME: solubility (mole fraction)

Hello, please tell me recorded solubility (mole fraction) for this one: C(=C\c1ccccc1)/CN1CCN(C(c2ccccc2)c2ccccc2)CC1
0.00204

====

# CONDITION SUMMARY: in n-butyl acetate, 288.5 K
ENDPOINT NAME: solubility (mole fraction)

Please report solubility (mole fraction) for the following compound: C(=C\c1ccccc1)/CN1CCN(C(c2ccccc2)c2ccccc2)CC1
0.0153

====

# CONDITION SUMMARY: in acetonitrile, 313.2 K
ENDPOINT NAME: solubility (mole fraction)
I'd appreciate a reply containing only the number, no unit.

Consider the compound C(=C\c1ccccc1)/CN1CCN(C(c2ccccc2)c2ccccc2)CC1 and give its recorded solubility (mole fraction).
0.00273

====

# CONDITION SUMMARY: in isopropanol, 293.5 K
ENDPOINT NAME: solubility (mole fraction)
Answer with a bare number; do not write a unit.

Specify solubility (mole fraction) for C(=C\c1ccccc1)/CN1CCN(C(c2ccccc2)c2ccccc2)CC1 and stop.
0.000811

====

# CONDITION SUMMARY: in n-butanol, 313.2 K
ENDPOINT NAME: solubility (mole fraction)
// return just the number, without any unit appended

Please indicate solubility (mole fraction) recorded for C(=C\c1ccccc1)/CN1CCN(C(c2ccccc2)c2ccccc2)CC1
0.00804

====

# CONDITION SUMMARY: in acetonitrile, 288.5 K
ENDPOINT NAME: solubility (mole fraction)
Simply state the number, no unit and no words.

Please give measured solubility (mole fraction) of the following entry: C(=C\c1ccccc1)/CN1CCN(C(c2ccccc2)c2ccccc2)CC1
0.000877

====

# CONDITION SUMMARY: in n-butyl acetate, 303.3 K
ENDPOINT NAME: solubility (mole fraction)
Please state the value as a number alone, without comment.

Answer with reported solubility (mole fraction) of C(=C\c1ccccc1)/CN1CCN(C(c2ccccc2)c2ccccc2)CC1
0.0272

====

# CONDITION SUMMARY: in n-butanol, 308.3 K
ENDPOINT NAME: solubility (mole fraction)

Supply solubility (mole fraction) value. Item: C(=C\c1ccccc1)/CN1CCN(C(c2ccccc2)c2ccccc2)CC1
0.00607

Data origin: BigSolDB 2.1
